Test system: 621-103 (TSC2-rescued)
Test summary: relative viability vs DMSO; higher = less cytotoxic;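 further: immortalized renal angiomyolipoma cells stably carrying empty vector or TSC2, dosed in 384-well plates in DMEM, viability normalized to vehicle-treated wells within each plate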
Test settings: 0.0001 µM; serum: 10% FBS; 72 h
Counter-ions that a name gives are not always drawn.

| Molecule | relative viability, % |
| --- | --- |
| C[C@@H]1CCO[C@H]2Cn3cc(C(=O)NCc4ccc(F)cc4F)c(=O)c(O)c3C(=O)N12 | 112 |
| CCOC(=O)[C@H](CCc1ccccc1)N[C@@H](C)C(=O)N1CCC[C@H]1C(=O)O [Enalapril Maleate] | 99 |
| C[C@H](NC(=O)Cc1cc(F)cc(F)c1)C(=O)N[C@H](C(=O)OC(C)(C)C)c1ccccc1 | 94.6 |
| CN(C)CC[C@H](CSc1ccccc1)Nc1ccc(S(=O)(=O)NC(=O)c2ccc(N3CCN(Cc4ccccc4-c4ccc(Cl)cc4)CC3)cc2)cc1[N+](=O)[O-] | 101 |
| Cc1[nH]c2ccccc2c1CCNCc1ccc(/C=C/C(=O)NO)cc1 | 97.6 |
| Cc1ccc(C(=O)N(CCCN)[C@@H](c2nc3cc(Cl)ccc3c(=O)n2Cc2ccccc2)C(C)C)cc1 [Ispinesibmesilate] | 68.8 |
| C=CCNC1=C2C[C@@H](C)C[C@H](OC)[C@H](O)[C@@H](C)/C=C(\C)[C@H](OC(N)=O)[C@@H](OC)/C=C\C=C(/C)C(=O)NC(=CC1=O)C2=O | 104 |
| COc1cc2c(cc1OC)C(=O)C(CC1CCN(Cc3ccccc3)CC1)C2 (stereo not drawn) [Donepezil HCl] | 93.1 |

* * *

System: 621-102 (TSC2-deficient)
Test summary: relative viability vs DMSO; higher = less cytotoxic
Test settings: 0.1 µM; serum: 10% FBS; 72 h
Reported relative viability values follow for various molecules
Readout type: relative viability (%)

| Structure string | Observed result |
| --- | --- |
| CN(C)C1CCN(C(=O)c2ccc(NC(=O)Nc3ccc(-c4nc(N5CCOCC5)nc(N5CCOCC5)n4)cc3)cc2)CC1 | 22.2 |
| CN1C(C(=O)Nc2ccccn2)=C(O)c2ccccc2S1(=O)=O | 109 |
| Nc1nccc(Oc2ccc(NC(=O)c3c[nH]cc(-c4ccc(F)cc4)c3=O)cc2F)c1Cl | 103 |
| COc1ccc([C@]2(C#N)CC[C@@H](C(=O)O)CC2)cc1OC1CCCC1 | 102 |
| Cn1cc(C2=C(c3ccc(Cl)cc3Cl)C(=O)NC2=O)c2ccccc21 | 90.4 |

* * *

System: 621-103 (TSC2-rescued)
Test summary: relative viability vs DMSO; higher = less cytotoxic
Test settings: 10 µM; serum: 10% FBS; 72 h
Where a name gives a salt, the structure may show the parent alone.
Entries whose relative viability is below 90% take MET; entries at or above 90% take NOT MET.

| Molecule | Target entity | Category |
| --- | --- | --- |
| COC(=O)Nc1nc2cc(Sc3ccccc3)ccc2[nH]1 [Fenbendazole (Panacur)] | 621-103 (TSC2-rescued) | MET |
| CC(=O)O[C@H]1CC[C@@]2(C)C(=CC[C@@H]3[C@@H]2CC[C@]2(C)C(c4cccnc4)=CC[C@@H]32)C1 [Abiraterone Acetate (CB7630)] | 621-103 (TSC2-rescued) | NOT MET |
| Cc1cc(Nc2cc(N3CCN(C)CC3)nc(/C=C/c3ccccc3)n2)n[nH]1 [ENMD-2076] | 621-103 (TSC2-rescued) | MET |
| CNCCCC12CCC(c3ccccc31)c1ccccc12 [Maprotiline HCl] | 621-103 (TSC2-rescued) | MET |
| CN1CCN(c2c(F)cc3c(=O)c(C(=O)O)cn(CCF)c3c2F)CC1 [Fleroxacin (Quinodis)] | 621-103 (TSC2-rescued) | NOT MET |
